# target-system: Metabotropic glutamate receptor 3 (Rattus norvegicus, UniProt P31422)
# Sequence (P31422 whole entry): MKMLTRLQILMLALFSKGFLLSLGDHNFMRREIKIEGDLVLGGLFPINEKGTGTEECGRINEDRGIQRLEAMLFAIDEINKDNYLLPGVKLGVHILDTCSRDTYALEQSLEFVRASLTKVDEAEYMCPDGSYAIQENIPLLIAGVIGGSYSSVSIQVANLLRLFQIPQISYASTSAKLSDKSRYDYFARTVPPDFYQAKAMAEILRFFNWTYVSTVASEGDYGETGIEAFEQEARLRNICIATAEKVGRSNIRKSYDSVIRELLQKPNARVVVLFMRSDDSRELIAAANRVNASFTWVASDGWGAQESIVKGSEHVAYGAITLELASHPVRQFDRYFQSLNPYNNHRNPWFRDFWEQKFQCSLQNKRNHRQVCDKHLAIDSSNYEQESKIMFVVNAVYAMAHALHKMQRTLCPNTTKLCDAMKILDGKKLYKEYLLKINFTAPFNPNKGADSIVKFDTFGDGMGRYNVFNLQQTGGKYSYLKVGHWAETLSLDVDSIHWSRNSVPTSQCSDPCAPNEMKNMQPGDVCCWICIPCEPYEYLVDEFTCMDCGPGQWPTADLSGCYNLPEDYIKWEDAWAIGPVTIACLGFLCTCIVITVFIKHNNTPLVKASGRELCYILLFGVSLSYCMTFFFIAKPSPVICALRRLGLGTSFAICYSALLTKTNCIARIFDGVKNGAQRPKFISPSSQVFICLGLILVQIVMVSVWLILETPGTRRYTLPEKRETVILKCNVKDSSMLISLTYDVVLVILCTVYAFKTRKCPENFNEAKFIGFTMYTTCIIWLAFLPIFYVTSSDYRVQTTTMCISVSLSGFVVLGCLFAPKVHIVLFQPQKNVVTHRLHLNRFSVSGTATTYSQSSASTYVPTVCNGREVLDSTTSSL
# protocol: Tested for binding affinity against Metabotropic glutamate receptor 3 in CHO cells using [3H]-7 as radioligand
quantity-kind: Ki (nM)

1. N[C@]1(C(=O)O)[C@H]2[C@@H](C[C@@H]1F)[C@@H]2C(=O)O | 65.9
2. N[C@@]1(C(=O)O)CC[C@H]2[C@H](C(=O)O)[C@H]21 | 53.5
3. N[C@@]1(C(=O)O)CC(=O)[C@@H]2[C@H]1[C@@]2(F)C(=O)O (stereo in doubt; (+)-14) | 3.62
4. N[C@@]1(C(=O)O)CC[C@@H]2[C@H]1[C@@]2(F)C(=O)O (stereo in doubt; (-)-11) | 41.7
